Listed here: items and their measured viability, T/C.
Test system: 935938-334-R-J1-PDC complex spheroid viability
test: Anticancer human tumor 935938-334-R-J1-PDC patient-derived small intestine adenocarcinoma cell line growth inhibition [POLQ]
condition parameters: second compound 10 µM; first compound 0.001 µM; stronger effect = lower value
Give a bare numeral; the unit % is implied.

These solved cases illustrate the format of a correct answer.
• CC[C@@]1(O)C(=O)OCc2c1cc1n(c2=O)Cc2cc3c(CN(C)C)c(O)ccc3nc2-1 + Cc1cccc(N(C)C(=O)C2C(O)CCN2c2nc(C)cc(C(F)(F)F)c2C#N)c1 = 95.3
• Cn1ncnc1[C@H]1c2n[nH]c(=O)c3cc(F)cc(c23)N[C@@H]1c1ccc(F)cc1 + COC1C(OC(N)=O)C(O)C(Oc2ccc3c(O)c(NC(=O)c4ccc(O)c(CC=C(C)C)c4)c(=O)oc3c2C)OC1(C)C = 92.7

For the next question, use this compound.
Query string: Which viability, T/C is listed for Cn1ncnc1[C@H]1c2n[nH]c(=O)c3cc(F)cc(c23)N[C@@H]1c1ccc(F)cc1 + Nc1ccc(C#CCN(C(=O)Cc2ncc(C(F)(F)F)cc2C(F)(F)F)c2ccc(F)cc2)nn1 ?
Result string: 106

----------
Listed here: items and their measured viability, T/C.
Tested on: 935938-334-R-J1-PDC complex spheroid viability
test: Anticancer human tumor 935938-334-R-J1-PDC cell line growth inhibition [POLQ];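 also: spheroids exposed to drugs for seven days before viability read; 100% = DMSO vehicle control wells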
condition parameters: second compound 10 µM; first compound 0.0316 µM; stronger effect = lower value

These solved cases illustrate the format of a correct answer.
* CC(C)n1c(=O)n(C)c2cnc3cc(F)c(-c4ccc(OCCCN5CCCCC5)nc4)cc3c21 + Cc1cccc(N(C)C(=O)C2C(O)CCN2c2nc(C)cc(C(F)(F)F)c2C#N)c1 | 105%
* CCCS(=O)(=O)Nc1ccc(F)c(C(=O)c2c[nH]c3ncc(-c4ccc(Cl)cc4)cc23)c1F + COC1C(OC(N)=O)C(O)C(Oc2ccc3c(O)c(NC(=O)c4ccc(O)c(CC=C(C)C)c4)c(=O)oc3c2C)OC1(C)C | 104%
* CCc1c2c(nc3ccc(O)cc13)-c1cc3c(c(=O)n1C2)COC(=O)[C@]3(O)CC + Nc1ccc(C#CCN(C(=O)Cc2ncc(C(F)(F)F)cc2C(F)(F)F)c2ccc(F)cc2)nn1 | 41%
* O=C(c1cc(Cc2n[nH]c(=O)c3ccccc23)ccc1F)N1CCN(C(=O)C2CC2)CC1 + COC1C(OC(N)=O)C(O)C(Oc2ccc3c(O)c(NC(=O)c4ccc(O)c(CC=C(C)C)c4)c(=O)oc3c2C)OC1(C)C | 94.9%

For the next question, use this compound.
Query string: Which viability, T/C is listed for C=CC(=O)N1CCN(c2nc(=O)n(-c3c(C)ccnc3C(C)C)c3nc(-c4c(O)cccc4F)c(F)cc23)C(C)C1 (stereo not given) + Cc1cccc(N(C)C(=O)C2C(O)CCN2c2nc(C)cc(C(F)(F)F)c2C#N)c1 ?
Result string: 77.8%

----------
Tested on: 935938-334-R-J1-PDC complex spheroid viability
test: Anticancer human tumor 935938-334-R-J1-PDC cell line growth inhibition [POLQ];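 also: spheroids exposed to drugs for seven days before viability read; 100% = DMSO vehicle control wells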
condition parameters: second compound 1 µM; first compound 0.316 µM; stronger effect = lower value
result type: viability, T/C (%)
Give a bare numeral; the unit % is implied.

These solved cases illustrate the format of a correct answer.
• O=c1[nH]cc(F)c(=O)[nH]1 + COC1C(OC(N)=O)C(O)C(Oc2ccc3c(O)c(NC(=O)c4ccc(O)c(CC=C(C)C)c4)c(=O)oc3c2C)OC1(C)C = 80.9
• COc1cccc(OCCCN)c1-c1cc(Nc2cnc(C#N)cn2)n[nH]1 + Nc1ccc(C#CCN(C(=O)Cc2ncc(C(F)(F)F)cc2C(F)(F)F)c2ccc(F)cc2)nn1 = 10.4

Query string: Which viability, T/C is listed for CNCc1ccc(-c2[nH]c3cc(F)cc4c3c2CCNC4=O)cc1 + Nc1ccc(C#CCN(C(=O)Cc2ncc(C(F)(F)F)cc2C(F)(F)F)c2ccc(F)cc2)nn1 ?
Result string: 121

Query string: Which viability, T/C is listed for CCc1c2c(nc3ccc(O)cc13)-c1cc3c(c(=O)n1C2)COC(=O)[C@]3(O)CC + COC1C(OC(N)=O)C(O)C(Oc2ccc3c(O)c(NC(=O)c4ccc(O)c(CC=C(C)C)c4)c(=O)oc3c2C)OC1(C)C ?
Result string: 29.3

Query string: Which viability, T/C is listed for COc1ccc([C@@H](O)c2cc(-c3ncnc4cc(N5CCOCC5)ccc34)c(F)cc2Cl)nn1 + COC1C(OC(N)=O)C(O)C(Oc2ccc3c(O)c(NC(=O)c4ccc(O)c(CC=C(C)C)c4)c(=O)oc3c2C)OC1(C)C ?
Result string: 111

Query string: Which viability, T/C is listed for CCc1cc2c(N3CCc4c(cc(Cn5ccnc5)cc4-c4cn(C)nc4C(F)(F)F)C3=O)ccnc2c(OC)n1 + COC1C(OC(N)=O)C(O)C(Oc2ccc3c(O)c(NC(=O)c4ccc(O)c(CC=C(C)C)c4)c(=O)oc3c2C)OC1(C)C ?
Result string: 62.5

Query string: Which viability, T/C is listed for COc1ccc([C@@H](O)c2cc(-c3ncnc4cc(N5CCOCC5)ccc34)c(F)cc2Cl)nn1 + Cc1cccc(N(C)C(=O)C2C(O)CCN2c2nc(C)cc(C(F)(F)F)c2C#N)c1 ?
Result string: 83.4
